For each record, write down the corresponding viability.
Assay: HUVEC growth inhibition – cell-based, human, primary screen (AID 575);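 also: 100% = median of untreated cell wells with 0.1% DMSO on each plate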
Settings: HUVEC proliferation, CellTiter-Glo luminescence, 72 h; at 10 µM; stronger effect = lower value
Give bare numbers, in %.

- compound: "Cc1cc(C)n2c(SCC(=O)Nc3cc(C)on3)nnc2n1"
  reported.metric: "viability"
  val: 104
- compound: "CCOC(=O)c1sc(NC(=O)c2noc3c2CCCC3)c(C(=O)OCC)c1C"
  reported.metric: "viability"
  val: 85
- compound: "CCC1CCCCN1CCNS(=O)(=O)c1ccc2c(c1)oc(=O)n2C (stereo unspecified)"
  reported.metric: "viability"
  val: 79.8

Value sought for every listed compound: viability.
1. Cc1ccccc1Cn1cc(/C=N/n2cnnc2)c2ccccc21
2. CC1(C)CC(=O)C(C=NCC2CCNCC2)=C(O)C1
3. CCN(CC)c1ccc(NC(=O)CN2C(=O)CC(C)(C)S(=O)(=O)c3ccccc32)c(C)c1
4. CC1CCc2nn(CC(=O)NCc3ccc4c(c3)OCO4)cc2C1 (stereo unspecified)
5. Cc1cc(NC(=O)COc2cccc(C)c2C)no1
6. CC(=O)c1sc(NC(=O)C2COc3ccccc3O2)nc1C (stereo unspecified)

Response:
[68.7, 106, 102, 90.7, 94.2, 80.7]

Required: viability, one value per compound below.
1. CC(C)Cc1nnc(NS(=O)(=O)c2ccc(Cl)cc2)s1
2. COc1cccc2cc(C(=O)Nc3cccnc3N3CCOCC3)c(=O)oc12

Response:
90.1
101
